Assay: Apparent permeability of the compound across bacterial inner membrane mimic pure POPG in PBS buffer at pH 7.4 incubated for 5 hrs by PAMPA based UV-Vis spectrophotometric analysis
Type: ADME
Catalogue of Papp at 5 h values
Answer format: numeric, ×10⁻⁶ cm/s implied, no suffix.

Lab note: O=C(N[C@H](CO)[C@H](O)c1ccc([N+](=O)[O-])cc1)C(Cl)Cl gave Papp at 5 h of 0.06

Lab note: N=C(N)NCCCCCCCCN(CCCCCCCCN)C(=O)N(CCCCCCCCN)CCCCCCCCNC(=N)N.O=C(O)C(F)(F)F gave Papp at 5 h of 0.19

Lab note: N=C(N)NCCCCCCCCN(CCCCCCCCNC(=N)NCC1CC1)C(=O)N(CCCCCCCCNC(=N)NCC1CC1)CCCCCCCCNC(=N)NCC1CC1.O=C(O)C(F)(F)F gave Papp at 5 h of 0.26

Lab note: N=C(N)NCCCCCCCCN(CCCCCCCCNC(=N)NCC1CC1)C(=O)N(CCCCCCCCNC(=N)N)CCCCCCCCNC(=N)NCC1CC1 gave Papp at 5 h of 1.88

Lab note: N=C(NCCCCCCCCNC(N)=O)NCC1CC1.O=C(O)C(F)(F)F gave Papp at 5 h of 6.1

Lab note: CCCCCCCCN(CCCCCCCCNC(=N)NCC1CC1)C(=O)N(CCCCCCNC(=N)NCC1CC1)CCCCCCNC(=N)NCC1CC1 gave Papp at 5 h of 0.18

###

Assay: Apparent permeability of the compound across bacterial inner membrane mimic pure POPG in PBS buffer at pH 7.4 incubated for 5 hrs in presence of 1,1-bis({6-[N'-(cyclopropylmethyl)carbamimidamido]hexyl})-3-{8-[N'-(cyclopropylmethyl)carbamimidamido]octyl}-3-octylurea by PAMPA based UV-Vis spectrophotometric analysis
PROPERTY: Papp at 5 h (×10⁻⁶ cm/s)
Answer format: numeric, ×10⁻⁶ cm/s implied, no suffix.

Lab note: O=C(N[C@H](CO)[C@H](O)c1ccc([N+](=O)[O-])cc1)C(Cl)Cl gave Papp at 5 h of 3.39

###

Assay: Apparent permeability of the compound across bacterial inner membrane mimic POPE/POPG (6:4) in PBS buffer at pH 7.4 incubated for 5 hrs by PAMPA based UV-Vis spectrophotometric analysis
Type: ADME
Catalogue of Papp at 5 h values
Answer format: numeric, ×10⁻⁶ cm/s implied, no suffix.

CCCCCCCCN(CCCCCCCCNC(=N)NCC1CC1)C(=O)N(CCCCCCNC(=N)NCC1CC1)CCCCCCNC(=N)NCC1CC1 = 0.13

Lab note: O=C(N[C@H](CO)[C@H](O)c1ccc([N+](=O)[O-])cc1)C(Cl)Cl gave Papp at 5 h of 1.12

Lab note: N=C(N)NCCCCCCCCN(CCCCCCCCN)C(=O)N(CCCCCCCCN)CCCCCCCCNC(=N)N.O=C(O)C(F)(F)F gave Papp at 5 h of 0.18

Lab note: N=C(N)NCCCCCCCCN(CCCCCCCCNC(=N)NCC1CC1)C(=O)N(CCCCCCCCNC(=N)N)CCCCCCCCNC(=N)NCC1CC1 gave Papp at 5 h of 0.74

Lab note: N=C(N)NCCCCCCCCN(CCCCCCCCNC(=N)NCC1CC1)C(=O)N(CCCCCCCCNC(=N)NCC1CC1)CCCCCCCCNC(=N)NCC1CC1.O=C(O)C(F)(F)F gave Papp at 5 h of 0.3

Lab note: N=C(NCCCCCCCCNC(N)=O)NCC1CC1.O=C(O)C(F)(F)F gave Papp at 5 h of 3.48
